target under test: T1, MYOF peptide complexed with HLA-A*02:01 on T2 cells (human)
T1 construct: whole, on cells
experiment: flow cytometry, peptide-loaded T2 cells;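 note: binding of single-chain Fv antibody constructs, raised in XenoMouse, to peptide-pulsed T2 cells measured by flow cytometry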
We begin with a simple list: items and their reported Signal/background.
API note: the answer field is a bare number with no unit suffix.

Please review the following examples before continuing.
[
  {
    "binder": "18182-A4 (scFv, scFv in bacterial lysate, detected with anti-Flag M2) scFv: EVQLLESGGGVVQPGRSLRLSCAASGFTFSSYAMTWVRQAPGQGLEWVSSISGSGGGTYYAASVKGRFTISRDNSKNTLYLQMNSLRAEDTAVYYCATGKGVHLGFDYWGQGTLVTVSSGGGGSGGGGSGGGGSELVLTQPPSVSVAPGQTARITCGGNNIGSKSVHWYQQKPGQAPVLVVYDDNDRPSGIPERFSGSNFGNTATLIISRVAAGDEADYYCQVWDSSSDHVVFGGGTKLTVL",
    "measure": "Signal/background",
    "experimental result": 1
  },
  {
    "binder": "18089-B2 (scFv, scFv in bacterial lysate, detected with anti-Flag M2) scFv: EVQLLESGGGLVQPGGSLRLSCAASGFTFSSYAMSWVRQAPGRGLEWVSTISISGGSTNYADSVKGRFTISRDNSKNTLYLQMNSLRAEDTAVYYCAKDGGSGWFPKLLHYGLDVWGQGTTVTVSSGGGGSGGGGSGGGGSELQMTQSPSSLSASVGDRVTITCQASQDISNYLNWYQQKPGKAPKLLIYAASSLQSGVPSRFSGSGSGTDFTLTISSLQPEDFATYYCQQSYSIPLTFGGGTKVEIK",
    "measure": "Signal/background",
    "experimental result": 1.1
  }
]

Now consider a different binder.
Input: Answer with the recorded Signal/background for the binder listed here: 18179-G12 (scFv, scFv in bacterial lysate, detected with anti-Flag M2) scFv: EVQLLESGAEVKKPGASVKVSCKASGYTFTRNGLSWVRQAPGQGLEWMGWISGYNGDTNYAQKLQGRGTMTTDTSTSTAYMELRSLRSDDTAVYYCARGRATFDYWGQGTLVTVSSGGGGSGGGGSGGGGSELVMTQSPSSLSASVGDRVTITCRASQGISNYLAWYQQKPGKVPKLLISAASTLQSGVPSRFSGSGSGTDFTLTISSLQPEDVATYYCQKYNSAPFTFGPGTKLEIK
Output: 0.9
